System: OVCAR-4
Answer each item with its documented log10(GI50).
Each number you see is log10 of GI50, and the unit inside the log is nM.

Look over these answered cases.
given_smiles: COc1cccc(Oc2ccccc2NC(=O)CNC(=O)c2cccc3ccccc23)c1
study_system: OVCAR-4
log10(GI50): 2.89

given_smiles: O=C(CNC(=O)c1cccc2ccccc12)Nc1ccccc1Oc1cccc(O)c1
study_system: OVCAR-4
log10(GI50): 4.40

given_smiles: O=C(CNC(=O)c1cccc2ccccc12)Nc1ccccc1Oc1ccccc1
study_system: OVCAR-4
log10(GI50): 3.66

given_smiles: COc1ccc(Oc2ccccc2NC(=O)CNC(=O)c2cccc3ccccc23)cc1
study_system: OVCAR-4
log10(GI50): 3.35

// next item, log10(GI50) requested
IN: Identify the reported log10(GI50) for the following entry. O=C(CNC(=O)c1cccc2ccccc12)Nc1ccccc1Oc1ccc(O)cc1
OUT: 3.45

Ref: patent US12054447B2
